system_tested: Hydroxycarboxylic acid receptor 3 (Homo sapiens, UniProt P49019)
Sequence (P49019 whole entry): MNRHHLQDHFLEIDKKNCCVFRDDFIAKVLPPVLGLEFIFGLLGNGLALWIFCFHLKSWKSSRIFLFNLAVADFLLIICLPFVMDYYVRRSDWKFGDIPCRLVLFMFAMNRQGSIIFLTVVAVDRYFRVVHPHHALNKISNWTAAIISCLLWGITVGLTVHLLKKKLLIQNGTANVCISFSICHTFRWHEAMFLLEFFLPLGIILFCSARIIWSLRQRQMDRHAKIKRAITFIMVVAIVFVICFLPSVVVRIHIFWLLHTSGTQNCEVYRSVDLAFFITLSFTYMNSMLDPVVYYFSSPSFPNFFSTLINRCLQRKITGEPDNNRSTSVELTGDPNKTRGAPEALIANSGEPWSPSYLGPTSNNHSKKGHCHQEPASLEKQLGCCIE
assay_method_text: Agonist activity at human GPR109b expressed in human adipocytes assessed as decrease in intracellular cAMP level by HTRF assay
Assay type: functional, cell-based
reported_conditions: read-out: EC50
quantity_measured: EC50 (µM)

A = c1c(-c2nnn[nH]2)n[nH]c1C1CC1
B = CCCc1cc(-c2nnn[nH]2)n[nH]1
Exam item: Could you tell me which of these two has the smaller EC50 figure? First: A Second: B Answer with the label corresponding to your selection.
Marked response: A
(A: 3.6 µM, B: 860 µM)

###

system_tested: UniProt P49019
assay_method_text: Agonist activity at human GPR109b […] assessed as decrease in intracellular cAMP level upto 50 uM by HTRF assay
Assay type: functional, cell-based
The source made the active and inactive calls. The rule behind the calls is not given here.
quantity_measured: Activity

line_notation=Cc1[nH]nc(C(=O)O)c1Cl reported_measurement=inactive
line_notation=CCc1cc(C(=O)O)[nH]n1 reported_measurement=inactive
line_notation=O=C(O)c1cc(C2CCC2)n[nH]1 reported_measurement=inactive
line_notation=Fc1c(-c2nnn[nH]2)n[nH]c1C1CC1 reported_measurement=inactive
